target-system: ASCL1; further: reference of the scale not given here
assay-text: pooled miR-30 sensor sort-seq; sequence = guide strand
condition-info: shRNA
property: sensor-assay potency score (higher = more potent)
Give the value as a plain number.

Query: Give sensor-assay potency score (higher = more potent) (ASCL1) of the following sequence: TTGAACAGTATTTAATAACATC
Response: -1.14

Query: Give sensor-assay potency score (higher = more potent) (ASCL1) of the following sequence: TAAGTTTGTAATAAAACAGTAA
Response: -0.00305

Query: Give sensor-assay potency score (higher = more potent) (ASCL1) of the following sequence: AAGTCGTTGGAGTAGTTGGGGG
Response: -0.573

Query: Give sensor-assay potency score (higher = more potent) (ASCL1) of the following sequence: TACATTAACAACATTTCTATAA
Response: -1.04

The measurements presented in this section are drawn from the OligoGym collection.
